Below: compounds with IC50 recorded for Cytochrome P450 2D6 (Homo sapiens) in separate published works.

1. CCc1ccc(Nc2ccc(C(=O)c3c[nH]c4ncnc(NCCOC)c34)c(F)n2)cn1: > 10 µM
2. CCN1CCN(Cc2cc(F)c(NC(=O)Cc3ccc(-c4cnc5cc(OC)c(OC)cc5c4)nc3)cc2C(F)(F)F)CC1: 18.8 µM
3. N#Cc1ccc(-c2nn3c(c2NC(=O)CC(F)(F)F)C(=O)N[C@@]2(CCc4cc(OCC(F)(F)F)ccc42)C3)nc1: > 20 µM
4. COc1cc(NS(=O)(=O)c2ccccc2CO)ccc1-n1cnc(C)c1: > 10 µM
5. CC1(C)CN(C(=O)[C@@H]2CCCO2)c2cc(NC(=O)c3cccnc3NCc3ccnc4[nH]ccc34)ccc21: > 20 µM
6. CNC(=O)c1cc(COc2nnc(Nc3ccc4c(c3)OCC4)c3ccoc23)ccn1: > 20 µM
7. N#Cc1ccc(C(=O)Nc2ccc(F)c([C@@]3(CF)N=C(N)O[C@@H]4CC(F)(F)C[C@@H]43)c2)nc1: > 10 µM

// switching to the query compound
The measured IC50 associated with "CCCNc1ncnc2[nH]cc(C(=O)c3ccc(Nc4cncc(OC)c4)nc3F)c12" reads > 10 µM
